Experiment: APR_HepG2_NuclearSize_24hr: Apredica 24-hour HepG2 Assay for Nuclear Size (AID 2282907)
Conditions: high-content imaging, actives raise or lower the signal
Activity calls are given as the source filed them. Rule for the calls: active = hit-call score of the fitted dose curve at least 0.9, where 1 is the maximum; inactive = score below 0.9.

[
  {
    "compound": "O=c1[nH]c(=O)[nH]c(=O)[nH]1",
    "AC50": "inactive"
  },
  {
    "compound": "C[C@@H]1C[C@@H]([C@H](O)CC2CC(=O)NC(=O)C2)C(=O)[C@@H](C)C1",
    "AC50": "inactive"
  },
  {
    "compound": "ClC1(Cl)C2(Cl)C3(Cl)C4(Cl)C(Cl)(Cl)C5(Cl)C3(Cl)C1(Cl)C5(Cl)C24Cl (stereo not drawn)",
    "AC50": "inactive"
  },
  {
    "compound": "C[C@]12CCC(=O)C[C@@H]1CC[C@@H]1[C@@H]2CC[C@]2(C)[C@@H](O)CC[C@@H]12",
    "AC50": "inactive"
  },
  {
    "compound": "CC(=O)[O][Hg][c]1ccccc1",
    "AC50": "66.6 µM (active)"
  },
  {
    "compound": "CCC(=O)C(CC(C)N(C)C)(c1ccccc1)c1ccccc1 (stereo not drawn)",
    "AC50": "inactive"
  },
  {
    "compound": "NC(=O)O",
    "AC50": "9.65 µM (active)"
  },
  {
    "compound": "O=C(Nc1ccc2[nH]ccc2c1)c1cc2cc(F)ccc2n1Cc1cccc(F)c1",
    "AC50": "inactive"
  }
]

----------
Read-out: TIMP1, TIMP1 (gene 7076)
Test: LTEA_HepaRG_TIMP1: Life Technologies and Expression Analysis (LTEA) Assay for TIMP1 using HepaRG (AID 2283534)
Conditions: mRNA level, 48 h; actives raise or lower the signal
Description: LTEA_HepaRG is a cell based, multiplexed-readout assay that uses HepaRG, a human liver cell line, with measurements taken at 48 hours after chemical dosing on a 96-well plate.LTEA_HepaRG_TIMP1 is one of 102 assay component(s) measured in the LTEA HepaRG cell culture assay. It is a marker of Cell proliferation, survival, death.Data from the assay component LTEA_HepaRG_TIMP1 was analyzed into 1 endpoint. […]
The source made the active and inactive calls. The calls were made as follows: active = hit-call score of the fitted dose curve at least 0.9, where 1 is the maximum; inactive = score below 0.9.
Possible outcomes: active, inactive

[
  {
    "molecule": "CCC(=O)C(CC(C)N(C)C)(c1ccccc1)c1ccccc1 (stereo not drawn)",
    "category-label": "inactive"
  },
  {
    "molecule": "CC(C)(C)c1cc(O)ccc1O",
    "category-label": "inactive"
  },
  {
    "molecule": "O=C(O)C(F)(F)C(F)(F)C(F)(F)C(F)(F)C(F)(F)C(F)(F)C(F)(F)C(F)(F)C(F)(F)C(F)(F)F",
    "category-label": "inactive"
  },
  {
    "molecule": "O=C1C2(Cl)C3(Cl)C4(Cl)C(Cl)(Cl)C5(Cl)C3(Cl)C1(Cl)C5(Cl)C24Cl (stereo not drawn)",
    "category-label": "active"
  },
  {
    "molecule": "ClCC(Cl)CCl",
    "category-label": "inactive"
  },
  {
    "molecule": "C=C(C)C(=O)[O][Sn]([CH2]CCC)([CH2]CCC)[CH2]CCC",
    "category-label": "inactive"
  },
  {
    "molecule": "O=C(O)C(Cl)(Cl)Cl",
    "category-label": "inactive"
  },
  {
    "molecule": "Cc1ccccc1N",
    "category-label": "inactive"
  },
  {
    "molecule": "O=C(Nc1ccc2[nH]ccc2c1)c1cc2cc(F)ccc2n1Cc1cccc(F)c1",
    "category-label": "active"
  },
  {
    "molecule": "CCCCCCCCc1ccc(O)cc1",
    "category-label": "inactive"
  },
  {
    "molecule": "C=CC(=O)OCCCCCC(C)C",
    "category-label": "inactive"
  },
  {
    "molecule": "CN(C)N=O",
    "category-label": "inactive"
  },
  {
    "molecule": "CC(C)(OO)c1ccccc1",
    "category-label": "inactive"
  }
]

----------
Experiment: ATG_M_06_TRANS: Attagene TRANS-FACTORIAL HepG2 Assay for M06 Transcription Factor (Internal Marker) (AID 2282983);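 note: reporter transcript level by RT-PCR then capillary electrophoresis fluorescence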
Conditions: HepG2 Attagene TRANS M06 internal marker reporter
Records with an inconclusive call do not appear. The source made the active and inactive calls. Rule for the calls: active = hit-call score of the fitted dose curve at least 0.9, where 1 is the maximum; inconclusive = response in the unintended direction; inactive = score below 0.9.

[
  {
    "molecule": "O=C1C2(Cl)C3(Cl)C4(Cl)C(Cl)(Cl)C5(Cl)C3(Cl)C1(Cl)C5(Cl)C24Cl (stereo unspecified)",
    "outcome": "inactive"
  },
  {
    "molecule": "COc1ccc(C=O)cc1OC",
    "outcome": "inactive"
  },
  {
    "molecule": "CC(C)(c1ccccc1)c1ccc(O)c(C(C)(C)c2ccccc2)c1",
    "outcome": "inactive"
  },
  {
    "molecule": "CC(C)C1CCC(Cc2ccc(Cl)cc2)C1(O)Cn1cncn1 (stereo unspecified)",
    "outcome": "inactive"
  },
  {
    "molecule": "O=[N+]([O-])c1ccc(O)c([N+](=O)[O-])c1",
    "outcome": "inactive"
  },
  {
    "molecule": "Clc1ccc(C2(Cn3cncn3)CC(Br)CO2)c(Cl)c1 (stereo unspecified)",
    "outcome": "inactive"
  }
]

----------
Read-out: Protein phosphatase 2A (PPP2R4), PTPA (gene 5524)
Experiment: LTEA_HepaRG_PPP2R4: Life Technologies and Expression Analysis (LTEA) Assay for Protein phosphatase 2A (PPP2R4) using HepaRG (AID 2283522)
Details: mRNA level, 48 h; actives raise or lower the signal
Activity calls are given as the source filed them. Rule for the calls: active = hit-call score of the fitted dose curve at least 0.9, where 1 is the maximum; inactive = score below 0.9.

[
  {
    "compound": "NC(=O)O",
    "AC50": "inactive"
  },
  {
    "compound": "O=C(Nc1ccc2[nH]ccc2c1)c1cc2cc(F)ccc2n1Cc1cccc(F)c1",
    "AC50": "inactive"
  },
  {
    "compound": "CCCCCCCCc1ccc(O)cc1",
    "AC50": "inactive"
  },
  {
    "compound": "Cc1ccccc1N",
    "AC50": "inactive"
  },
  {
    "compound": "C=C(C)C(=O)[O][Sn]([CH2]CCC)([CH2]CCC)[CH2]CCC",
    "AC50": "inactive"
  },
  {
    "compound": "CCC(=O)C(CC(C)N(C)C)(c1ccccc1)c1ccccc1 (stereo unspecified)",
    "AC50": "inactive"
  },
  {
    "compound": "O=C(O)C(F)(F)C(F)(F)C(F)(F)C(F)(F)C(F)(F)C(F)(F)F",
    "AC50": "inactive"
  },
  {
    "compound": "O=C1C2(Cl)C3(Cl)C4(Cl)C(Cl)(Cl)C5(Cl)C3(Cl)C1(Cl)C5(Cl)C24Cl (stereo unspecified)",
    "AC50": "15.8 µM (active)"
  },
  {
    "compound": "C=CC(=O)OCCCCCC(C)C",
    "AC50": "inactive"
  },
  {
    "compound": "CCOP(=S)(OCC)Oc1nc(Cl)c(Cl)cc1Cl",
    "AC50": "inactive"
  },
  {
    "compound": "CC(C)(C)c1cc(O)ccc1O",
    "AC50": "inactive"
  },
  {
    "compound": "COc1cc(-c2ccc(N)c(OC)c2)ccc1N",
    "AC50": "inactive"
  },
  {
    "compound": "C[C@@H]1C[C@@H]([C@H](O)CC2CC(=O)NC(=O)C2)C(=O)[C@@H](C)C1",
    "AC50": "0.636 µM (active)"
  },
  {
    "compound": "ClC1(Cl)C2(Cl)C3(Cl)C4(Cl)C(Cl)(Cl)C5(Cl)C3(Cl)C1(Cl)C5(Cl)C24Cl (stereo unspecified)",
    "AC50": "inactive"
  },
  {
    "compound": "C[C@]12CCC(=O)C[C@@H]1CC[C@@H]1[C@@H]2CC[C@]2(C)[C@@H](O)CC[C@@H]12",
    "AC50": "inactive"
  },
  {
    "compound": "CN(C)N=O",
    "AC50": "inactive"
  },
  {
    "compound": "Oc1cccc2cccnc12",
    "AC50": "inactive"
  },
  {
    "compound": "CCN1CCC2(CC1)COc1cc3c(cc12)N(C(=O)c1ccc(-c2ccc(-c4nnc(C)o4)cc2C)cc1)CC3",
    "AC50": "21.8 µM (active)"
  },
  {
    "compound": "CC(C)(c1ccccc1)c1ccc(O)c(C(C)(C)c2ccccc2)c1",
    "AC50": "inactive"
  },
  {
    "compound": "O=C(O)C(F)(F)C(F)(F)C(F)(F)C(F)(F)C(F)(F)C(F)(F)C(F)(F)C(F)(F)C(F)(F)C(F)(F)F",
    "AC50": "inactive"
  },
  {
    "compound": "CC(=O)[O][Hg][c]1ccccc1",
    "AC50": "28 µM (active)"
  }
]
